Test system: HOP-62
ASSAY EXPLANATION: Pemetrexed cytotoxicity test upon suppression of expression of MYT1
Type: cell-based
CONDITION DETAILS: Homo sapiens, read-out: IC50 of pemetrexed, MYT1 #16; HOP-62 (RB1 wild-type); MYT1 siRNA #16 10 nM; 7 days
RECORDED ENDPOINT: pIC50
// pIC50 is dimensionless: -log10 of concentration (M)

Which pIC50 is reported for this molecule? "Nc1nc2[nH]cc(CCc3ccc(C(=O)N[C@@H](CCC(=O)O)C(=O)O)cc3)c2c(=O)[nH]1" 7.01

====

Tested on: NCI-H322
ASSAY EXPLANATION: Pemetrexed cytotoxicity test upon suppression of expression of MYT1
Assay type: cell-based
CONDITION DETAILS: read-out: IC50 of pemetrexed, MYT1 #18; NCI-H322 (RB1 wild-type); MYT1 siRNA #18 10 nM; 7 days
RECORDED ENDPOINT: pIC50
// pIC50 is dimensionless: -log10 of concentration (M)

Missing value: pIC50, NCI-H322, entry "Nc1nc2[nH]cc(CCc3ccc(C(=O)N[C@@H](CCC(=O)O)C(=O)O)cc3)c2c(=O)[nH]1" . Fill in? 6.09

====

System: EKVX
ASSAY EXPLANATION: Pemetrexed cytotoxicity test upon suppression of expression of MYT1
Assay type: cell-based
CONDITION DETAILS: Homo sapiens, read-out: IC50 of pemetrexed, MYT1 #16; EKVX (RB1 wild-type); MYT1 siRNA #16 10 nM; 7 days
RECORDED ENDPOINT: IC50 (nM)
Express it in nM; write the number only.

Which IC50 is reported for this molecule? Nc1nc2[nH]cc(CCc3ccc(C(=O)N[C@@H](CCC(=O)O)C(=O)O)cc3)c2c(=O)[nH]1 [pemetrexed] 166

====

Tested on: ChaGo-K-1
ASSAY EXPLANATION: Pemetrexed cytotoxicity test upon suppression of expression of MYT1
Format: cell-based
CONDITION DETAILS: Homo sapiens, read-out: IC50 of pemetrexed, MYT1 #18; ChaGo-K-1 (RB1 mutant); MYT1 siRNA #18 10 nM; 7 days
RECORDED ENDPOINT: pIC50
// pIC50 is dimensionless: -log10 of concentration (M)

Which pIC50 is reported for this compound? "Nc1nc2[nH]cc(CCc3ccc(C(=O)N[C@@H](CCC(=O)O)C(=O)O)cc3)c2c(=O)[nH]1" 6.72

====

Tested on: HOP-62
ASSAY EXPLANATION: Pemetrexed cytotoxicity test upon suppression of expression of MYT1
Assay type: cell-based
CONDITION DETAILS: Homo sapiens, read-out: IC50 of pemetrexed, NT; HOP-62 (RB1 wild-type); negative control siRNA 10 nM; 7 days
Experimental: Thereafter, the plates were shaken to transfect each siRNA at a final concentration of 10 nM. The −Log 2 value of fold change of IC50 and the maximum value of Bliss score, which are indexes of the combination effect, were calculated by comparing with the actually obtained cell survival curve, and described in Table 6 (see Non Patent Literature 9).
RECORDED ENDPOINT: IC50 (µM)
Express it in µM; write the number only.

Which IC50 is reported for this compound? "Nc1nc2[nH]cc(CCc3ccc(C(=O)N[C@@H](CCC(=O)O)C(=O)O)cc3)c2c(=O)[nH]1" 0.175
